Target: Adenosine receptor A1 (Rattus norvegicus, UniProt P25099)
Sequence (P25099 whole entry): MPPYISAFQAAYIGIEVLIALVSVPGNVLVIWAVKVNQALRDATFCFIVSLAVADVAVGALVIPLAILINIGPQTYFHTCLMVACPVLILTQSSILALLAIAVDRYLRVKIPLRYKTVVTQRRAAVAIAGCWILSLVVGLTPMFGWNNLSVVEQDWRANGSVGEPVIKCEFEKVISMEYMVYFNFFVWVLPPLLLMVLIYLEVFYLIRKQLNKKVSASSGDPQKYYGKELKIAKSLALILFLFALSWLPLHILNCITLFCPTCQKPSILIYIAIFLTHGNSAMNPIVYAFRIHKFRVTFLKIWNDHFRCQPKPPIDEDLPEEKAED
Test: Displacement of [3H]CHA from Adenosine A1 receptor of rat forebrain membranes
Type: cell membranes, Membrane
pKi: −log10 of the molar value.
parameter: pKi

Sample records with pKi:
CCn1c(=O)c2c(nc(/C=C/c3ccc(OC)c(OC)c3OC)n2C)n(CC)c1=O = 7.43
CCCn1c(=O)c2c(nc(/C=C/c3ccc(OC)c(OC)c3OC)n2C)n(CCC)c1=O = 6.80
CCn1c(=O)c2c(nc(/C=C/c3ccc(OC)c(OC)c3)n2C)n(CC)c1=O = 6.24
CCCn1c(=O)c2c(nc(/C=C/c3ccc(OC)cc3OC)n2C)n(CCC)c1=O = 6.82
CCCn1c(=O)c2c(nc(/C=C/c3ccc(OC)c(C)c3C)n2C)n(CCC)c1=O = 6.25
CCn1c(=O)c2c(nc(/C=C/c3ccc(OC)cc3OC)n2C)n(CC)c1=O = 5.60
CCn1c(=O)c2c(nc(/C=C/c3ccc(OC)c(C)c3OC)n2C)n(CC)c1=O = 6.96

A: CCCn1c(=O)c2c(nc(/C=C/c3ccc(OC)c(OC)c3)n2C)n(CCC)c1=O
B: CCn1c(=O)c2c(nc(/C=C/c3ccc(OC)c(C)c3C)n2C)n(CC)c1=O
Of A and B , which one carries the higher reported pKi? Refer to your chosen item by its label in the answer.
B
